- PROTOCOL_TEXT: Ionization constant in presence of hydroxyl
- Assay type: physicochemical
- DETAILS: read-out: pKa2
OBSERVED_PROPERTY: pKa

>  <COMPOUND>
CCCN(CCC)C1COc2ccc(O)cc2C1 (stereo not drawn)

>  <OBSERVED_PROPERTY>
pKa

>  <MEASURED>
9.6

$$$$
>  <COMPOUND>
CCCN(CCC)C1COc2c(O)cccc2C1 (stereo not drawn)

>  <OBSERVED_PROPERTY>
pKa

>  <MEASURED>
9.9

$$$$
>  <COMPOUND>
CCCN(CCC)C1CCc2ccc(O)cc2C1 (stereo not drawn)

>  <OBSERVED_PROPERTY>
pKa

>  <MEASURED>
10.7

$$$$
>  <COMPOUND>
CCCN1CCO[C@@H]2c3cc(O)ccc3CC[C@H]21 [NAXAGOLIDE]

>  <OBSERVED_PROPERTY>
pKa

>  <MEASURED>
10.9

$$$$
>  <COMPOUND>
CCCN1CCO[C@@H]2c3cc(O)ccc3OC[C@H]21

>  <OBSERVED_PROPERTY>
pKa

>  <MEASURED>
10.3

$$$$
>  <COMPOUND>
CCCN(CCC)C1CCc2c(O)cccc2C1 (stereo not drawn)

>  <OBSERVED_PROPERTY>
pKa

>  <MEASURED>
10.9

$$$$
>  <COMPOUND>
CCCN1CCO[C@@H]2c3cccc(O)c3OC[C@H]21

>  <OBSERVED_PROPERTY>
pKa

>  <MEASURED>
10.2

$$$$
>  <COMPOUND>
CCCN1CCO[C@@H]2c3cccc(O)c3CC[C@H]21

>  <OBSERVED_PROPERTY>
pKa

>  <MEASURED>
10.5

$$$$

----------
- PROTOCOL_TEXT: Ionization constant in presence of nitrogen
- Type: physicochemical
- DETAILS: read-out: pKa1

>  <COMPOUND>
CCCN1CCO[C@@H]2c3cc(O)ccc3OC[C@H]21

>  <pKa>
6.1

$$$$
>  <COMPOUND>
CCCN1CCO[C@@H]2c3cccc(O)c3OC[C@H]21

>  <pKa>
5.8

$$$$
>  <COMPOUND>
CCCN(CCC)C1COc2ccc(O)cc2C1 (stereo not drawn)

>  <pKa>
8.1

$$$$
>  <COMPOUND>
CCCN(CCC)C1CCc2ccc(O)cc2C1 (stereo not drawn)

>  <pKa>
9.4

$$$$
>  <COMPOUND>
CCCN(CCC)C1COc2c(O)cccc2C1 (stereo not drawn)

>  <pKa>
8.2

$$$$
>  <COMPOUND>
CCCN(CCC)C1CCc2c(O)cccc2C1 (stereo not drawn) [5-OH-DPAT]

>  <pKa>
9.4

$$$$
>  <COMPOUND>
CCCN1CCO[C@@H]2c3cccc(O)c3CC[C@H]21

>  <pKa>
7.4

$$$$
>  <COMPOUND>
CCCN1CCO[C@@H]2c3cc(O)ccc3CC[C@H]21 [NAXAGOLIDE]

>  <pKa>
7.5

$$$$

----------
- PROTOCOL_TEXT: Partition coefficient in octanol-buffer at a pH 7.4
- Type: physicochemical

>  <COMPOUND>
CCCN1CCO[C@@H]2c3cccc(O)c3OC[C@H]21

>  <logD>
1.93

$$$$
>  <COMPOUND>
CCCN1CCO[C@@H]2c3cc(O)ccc3OC[C@H]21

>  <logD>
1.97

$$$$
>  <COMPOUND>
CCCN1CCO[C@@H]2c3cc(O)ccc3CC[C@H]21 [NAXAGOLIDE]

>  <logD>
2.09

$$$$
>  <COMPOUND>
CCCN1CCO[C@@H]2c3cccc(O)c3CC[C@H]21

>  <logD>
2.22

$$$$
>  <COMPOUND>
CCCN(CCC)C1COc2ccc(O)cc2C1 (stereo not drawn)

>  <logD>
2.39

$$$$
>  <COMPOUND>
CCCN(CCC)C1COc2c(O)cccc2C1 (stereo not drawn)

>  <logD>
2.44

$$$$
>  <COMPOUND>
CCCN(CCC)C1CCc2c(O)cccc2C1 (stereo not drawn) [5-OH-DPAT]

>  <logD>
1.53

$$$$
>  <COMPOUND>
CCCN(CCC)C1CCc2ccc(O)cc2C1 (stereo not drawn)

>  <logD>
1.45

$$$$
